System: Osteoblasts (Calvarial cells)
Protocol Conditions: ICR, mouse, 72 h, 1 μM
Readout Name: Cell viability (%) Calvarial cell
Enter your answer as a number in %; do not include the unit.

{"Molecule": "O=[N+]([O-])c1ccc(NCc2cccnc2)nc1Nc1ccc(-c2csc(C3CCCCC3)n2)cc1 [Compound 162]", "Unit Abbrev": "%", "Cell viability (%) Calvarial cell": 67}
{"Molecule": "CC(C)Nc1ccc([N+](=O)[O-])c(Nc2ccc(C(C)(C)C)cc2)n1 [Compound 31]", "Unit Abbrev": "%", "Cell viability (%) Calvarial cell": 108}
{"Molecule": "O=[N+]([O-])c1ccc(NCc2cccnc2)nc1Nc1ccc(-n2ccnc2)cc1 [Compound 93]", "Unit Abbrev": "%", "Cell viability (%) Calvarial cell": 98}
{"Molecule": "COc1ccc(Nc2nc(NC(C)(C)C)ccc2[N+](=O)[O-])cc1 [Compound 23]", "Unit Abbrev": "%", "Cell viability (%) Calvarial cell": 90}
{"Molecule": "Cc1ccc(Nc2nc(N3CCC(N)CC3)ccc2[N+](=O)[O-])cc1 [Compound 13]", "Unit Abbrev": "%", "Cell viability (%) Calvarial cell": 97}

Record request: Cell viability (%) Calvarial cell value, item Cc1nc(-c2ccc(Nc3nc(NCc4ccncc4)ccc3[N+](=O)[O-])cc2)cs1 [Compound 139]
95

Now try CC(=O)c1cccc(Nc2nc(NCc3cccnc3)ccc2[N+](=O)[O-])c1 [Compound 102] .
92

And for O=[N+]([O-])c1ccc(NCCCn2ccnc2)nc1Nc1ccc(N2CCOCC2)cc1 [Compound 119] ?
107
